- Assayed system: Acetylcholinesterase (Homo sapiens, UniProt P22303)
- Sequence (P22303 whole entry): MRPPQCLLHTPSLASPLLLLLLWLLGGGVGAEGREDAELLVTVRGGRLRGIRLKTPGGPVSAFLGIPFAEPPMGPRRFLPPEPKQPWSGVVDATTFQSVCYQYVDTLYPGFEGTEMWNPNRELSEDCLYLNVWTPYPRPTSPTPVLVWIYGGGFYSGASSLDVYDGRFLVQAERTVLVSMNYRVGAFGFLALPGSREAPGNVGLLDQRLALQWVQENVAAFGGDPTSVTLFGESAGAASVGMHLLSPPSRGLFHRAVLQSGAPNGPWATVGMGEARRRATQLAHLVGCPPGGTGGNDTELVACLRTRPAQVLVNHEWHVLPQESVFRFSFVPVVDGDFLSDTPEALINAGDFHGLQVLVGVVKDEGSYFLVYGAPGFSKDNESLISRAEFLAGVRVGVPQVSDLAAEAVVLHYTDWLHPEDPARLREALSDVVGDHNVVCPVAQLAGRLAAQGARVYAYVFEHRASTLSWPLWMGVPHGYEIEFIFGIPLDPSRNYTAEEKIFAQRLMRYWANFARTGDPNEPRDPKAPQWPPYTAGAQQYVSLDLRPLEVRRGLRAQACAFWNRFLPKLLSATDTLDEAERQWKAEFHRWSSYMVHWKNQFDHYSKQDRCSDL
Readout: pIC50
Lab note — pIC50 values are minus log10 of concentrations in M.

# annotated cases, reported pIC50 shown
{"Item smiles": "CC[C@H]1[C@H](C[C@H](C)C(=O)OC)O[C@]23CC[C@@H]([C@@H]4C[C@H](C)C(=O)O4)N2CCCC[C@H]13", "Assayed system": "Acetylcholinesterase (Homo sapiens, UniProt P22303)", "Readout": "pIC50", "Recorded number": 4.15}
{"Item smiles": "CC[C@H]1[C@H]2OC(=O)[C@](C)(O)[C@H]2[C@]23CC[C@@H]([C@@H]4C[C@@H](C)C(=O)O4)N2CCCC[C@@H]13", "Assayed system": "Acetylcholinesterase (Homo sapiens, UniProt P22303)", "Readout": "pIC50", "Recorded number": 5.04}
{"Item smiles": "CC[C@H]1[C@@H]2OC(=O)[C@@](C)(O)[C@@H]2[C@@]23CC[C@@H]([C@@H]4C[C@H](C)C(=O)O4)N2CCCC[C@H]13", "Assayed system": "Acetylcholinesterase (Homo sapiens, UniProt P22303)", "Readout": "pIC50", "Recorded number": 4.77}

Now look at this entry.
Reported pIC50 of CC[C@@H]1[C@H]2OC(=O)[C@@](C)(O)[C@H]2[C@]23CC[C@@H]([C@@H]4C[C@H](C)C(=O)O4)N2CCCC[C@H]13 : 4.16
